Test system: Enterococcus sp.
assay overview: in vitro antibacterial evaluation, MIC by broth dilution
Format: cell-based
condition context: broth dilution, inoculum 5×10^5 CFU/mL, 18 hours at 35° C.; strain GC 2242
property label: MIC Enterococcus faecalis (GC 2242) (µg/mL)
Kindly provide the numeric value in µg/mL only, without the unit symbol.

Example molecules with recorded MIC Enterococcus faecalis (GC 2242):
molecule	system name	MIC Enterococcus faecalis (GC 2242) / µg/mL
CC(C)=CCCC(C)=CCOc1ccc(C2OCC3OC(OC4C(CO)OC(Oc5ccc(CC6NC(=O)C(C(C)c7ccccc7)NC(=O)CNC(=O)C(CO)NC(=O)C(C(O)C7CNC(=N)N7C7OC(CO)C(O)C(O)C7O)NC(=O)C(C(O)C7CNC(=N)N7)NC6=O)cc5)C(O)C4O)C(O)C(O)C3O2)cc1 (stereo not shown)	Enterococcus sp.	8
CC(c1ccccc1)C1NC(=O)CNC(=O)C(CO)NC(=O)C(CC2CNC(=N)N2C2OC(CO)C(O)C(O)C2O)NC(=O)C(CC2CNC(=N)N2)NC(=O)C(Cc2ccc(OC3OC(CO)C(OC4OC(COCc5ccc(OCc6ccccc6)cc5)C(O)C(O)C4O)C(O)C3O)cc2)NC1=O (stereo not shown)	Enterococcus sp.	16
CC(c1ccccc1)C1NC(=O)CNC(=O)C(CO)NC(=O)C(C(O)C2CNC(=N)N2C2OC(CO)C(O)C(O)C2O)NC(=O)C(C(O)C2CNC(=N)N2)NC(=O)C(Cc2ccc(OC3OC(CO)C(OC4OC5COC6(CCC(C(C)(C)C)CC6)OC5C(O)C4O)C(O)C3O)cc2)NC1=O (stereo not shown)	Enterococcus sp.	8

Attention now turns to another entry.
## Task Identify the reported MIC Enterococcus faecalis (GC 2242) for the following entry. COc1ccc(COCC2OC(OC3C(CO)OC(Oc4ccc(CC5NC(=O)C(C(C)c6ccccc6)NC(=O)CNC(=O)C(CO)NC(=O)C(C(O)C6CNC(=N)N6C6OC(CO)C(O)C(O)C6O)NC(=O)C(C(O)C6CNC(=N)N6)NC5=O)cc4)C(O)C3O)C(O)C(O)C2O)cc1F (stereo not shown)
## Result 16

###

assay overview: clinical pathology (serum clinical chemistry) in mice
Assay type: in vivo
condition context: CD-1 mice, 20 mg/kg intravenously daily for 9 days, sera day 10
property label: Clinical Chemistry (Day 10) % of Control, BUN

molecule	val
CC(C)CC(=O)OC1C(OC2C(CO)OC(Oc3ccc(CC4NC(=O)C(C(C)c5ccccc5)NC(=O)CNC(=O)C(CO)NC(=O)C(CC5CNC(=N)N5C5OC(CO)C(O)C(O)C5O)NC(=O)C(CC5CNC(=N)N5)NC4=O)cc3)C(O)C2O)OC(CO)C(O)C1O (centres unmarked) [Example 277b]	+113%
CC(c1ccccc1)C1NC(=O)CNC(=O)C(CO)NC(=O)C(C(O)C2CN(CCCCCCCCCCCCO)C(=N)N2C2OC(CO)C(O)C(O)C2O)NC(=O)C(C(O)C2CNC(=N)N2)NC(=O)C(Cc2ccc(OC3OC(CO)C(OC4OC(CO)C(O)C(O)C4O)C(O)C3O)cc2)NC1=O (centres unmarked)	+157%
COc1ccc2cc(COCC3OC(OC4C(CO)OC(Oc5ccc(CC6NC(=O)C(C(C)c7ccccc7)NC(=O)CNC(=O)C(CO)NC(=O)C(C(O)C7CNC(=N)N7C7OC(CO)C(O)C(O)C7O)NC(=O)C(C(O)C7CNC(=N)N7)NC6=O)cc5)C(O)C4O)C(O)C(O)C3O)ccc2c1 (centres unmarked)	+179%
CC(c1ccccc1)C1NC(=O)CNC(=O)C(CO)NC(=O)C(C(O)C2CNC(=N)N2C2OC(CO)C(O)C(O)C2O)NC(=O)C(C(O)C2CNC(=N)N2)NC(=O)C(Cc2ccc(OC3OC(CO)C(OC4OC5COC(Cc6ccccc6)OC5C(O)C4O)C(O)C3O)cc2)NC1=O (centres unmarked)	+249%

Attention now turns to another entry.
## Task Identify the reported Clinical Chemistry (Day 10) % of Control, BUN for the following entry. COc1ccc2cc(COCC3OC(OC4C(CO)OC(Oc5ccc(CC6NC(=O)C(C(C)c7ccccc7)NC(=O)CNC(=O)C(CO)NC(=O)C(CC7CNC(=N)N7C7OC(CO)C(O)C(O)C7O)NC(=O)C(CC7CNC(=N)N7)NC6=O)cc5)C(O)C4O)C(O)C(O)C3O)ccc2c1 (centres unmarked)
## Result +160%

###

// reported MIC Enterococcus faecium (GC 4556) per item
Tested on: Enterococcus sp.
assay overview: in vitro antibacterial evaluation, MIC by broth dilution
Type: cell-based
condition context: broth dilution, inoculum 5×10^5 CFU/mL, 18 hours at 35° C.; strain GC 4556
Kindly provide the numeric value in µg/mL only, without the unit symbol.

Example molecules with recorded MIC Enterococcus faecium (GC 4556):
molecule	quantity unit	MIC Enterococcus faecium (GC 4556)
CC(c1ccccc1)C1NC(=O)CNC(=O)C(CO)NC(=O)C(C(O)C2CNC(=N)N2C2OC(CO)C(O)C(O)C2O)NC(=O)C(C(O)C2CNC(=N)N2)NC(=O)C(Cc2ccc(OC3OC(CO)C(OC4OC(CO)C(O)C(OCc5ccc(OCc6ccccc6)cc5)C4O)C(O)C3O)cc2)NC1=O (centres unmarked) [Example 231c]	µg/mL	4
CC(c1ccccc1)C1NC(=O)CNC(=O)C(CO)NC(=O)C(C(O)C2CNC(=N)N2C2OC(CO)C(O)C(O)C2O)NC(=O)C(C(O)C2CNC(=N)N2)NC(=O)C(Cc2ccc(OC3OC(CO)C(OC4OC5COC(c6ccc(C(=O)c7ccc(I)cc7)cc6)OC5C(O)C4O)C(O)C3O)cc2)NC1=O (centres unmarked)	µg/mL	2
COc1ccc(Oc2cccc(C3OCC4OC(OC5C(CO)OC(Oc6ccc(CC7NC(=O)C(C(C)c8ccccc8)NC(=O)CNC(=O)C(CO)NC(=O)C(C(O)C8CNC(=N)N8C8OC(CO)C(O)C(O)C8O)NC(=O)C(C(O)C8CNC(=N)N8)NC7=O)cc6)C(O)C5O)C(O)C(O)C4O3)c2)cc1 (centres unmarked)	µg/mL	2

Attention now turns to another entry.
## Task Identify the reported MIC Enterococcus faecium (GC 4556) for the following entry. CC(c1ccccc1)C1NC(=O)CNC(=O)C(CO)NC(=O)C(C(O)C2CNC(=N)N2C2OC(CO)C(O)C(O)C2O)NC(=O)C(C(O)C2CNC(=N)N2)NC(=O)C(Cc2ccc(OC3OC(CO)C(OC4OC5COC6(CCCCC6(C)C)OC5C(O)C4O)C(O)C3O)cc2)NC1=O (centres unmarked)
## Result 2

###

Tested on: Streptococcus sp.
assay overview: in vitro antibacterial evaluation, MIC by broth dilution
Assay type: cell-based
condition context: strain ATCC 6301; broth dilution, 18 hours at 35° C.
Numbered stars: 1 amine (or outer) side, 2 acyl side, 3 side chain; on linkers, the order of the positions; unused ones are H or OH. Square brackets hold non-standard residues; d marks the D form. Peptide text beside a SMILES is read from it. ξ: configuration not given here. X1 = N=C1NCC(C(O)C(N[*:1])C(=O)[*:2])N1C1OC(CO)C(O)C(O)C1O; ξEnduracididine(βξ-OH,4'ξ) = N=C1NCC(C(O)C(N)C(=O)O)N1; ξCha(3ξ-Me) = CC(C1CCCCC1)C(N)C(=O)O; Cha = N[CH](CC1CCCCC1)C(=O)O
property label: MIC Streptococcus pneumoniae (ATCC 6301) (µg/mL)
Kindly provide the numeric value in µg/mL only, without the unit symbol.

Example molecules with recorded MIC Streptococcus pneumoniae (ATCC 6301):
molecule	system name	val
Cc1cc(C2OCC3OC(OC4C(CO)OC(Oc5ccc(CC6NC(=O)C(C(C)c7ccccc7)NC(=O)CNC(=O)C(CO)NC(=O)C(C(O)C7CNC(=N)N7C7OC(CO)C(O)C(O)C7O)NC(=O)C(C(O)C7CNC(=N)N7)NC6=O)cc5)C(O)C4O)C(O)C(O)C3O2)ccc1[N+](=O)[O-] (stereo not shown)	Streptococcus sp.	1
CC(C1CCCCC1)C1NC(=O)CNC(=O)C(CO)NC(=O)C(C(O)C2CNC(=N)N2C2OC(CO)C(O)C(O)C2O)NC(=O)C(C(O)C2CNC(=N)N2)NC(=O)C(CC2CCCCC2)NC1=O (stereo not drawn) [Example 53] (cyclo(G[ξCha(3ξ-Me)][Cha][ξEnduracididine(βξ-OH,4'ξ)][X1]S); configuration not given here)	Streptococcus sp.	1
CCOc1cc(C2OCC3OC(OC4C(CO)OC(Oc5ccc(CC6NC(=O)C(C(C)c7ccccc7)NC(=O)CNC(=O)C(CO)NC(=O)C(C(O)C7CNC(=N)N7C7OC(CO)C(O)C(O)C7O)NC(=O)C(C(O)C7CNC(=N)N7)NC6=O)cc5)C(O)C4O)C(O)C(O)C3O2)ccc1[N+](=O)[O-] (stereo not shown)	Streptococcus sp.	1

Attention now turns to another entry.
## Task Identify the reported MIC Streptococcus pneumoniae (ATCC 6301) for the following entry. COc1cccc(C2OC3C(OC4C(CO)OC(Oc5ccc(CC6NC(=O)C(C(C)c7ccccc7)NC(=O)CNC(=O)C(CO)NC(=O)C(C(O)C7CNC(=N)N7C7OC(CO)C(O)C(O)C7O)NC(=O)C(C(O)C7CNC(=N)N7)NC6=O)cc5)C(O)C4O)OC(CO)C(O)C3O2)c1 (single isomer, unassigned) [Example 137b]
## Result 2
